Recorded values, source the supplement of paper PMC10307832.

Tested on: EPLC-272H
Experiment: relative viability (nuclei count vs DMSO), 5 days (fraction); higher = more cells survive
Details: first compound 2 µM
Hi there, I'd appreciate the recorded relative viability for every entry that follows.
Please give the numeric answer without any surrounding text.

Query: Please report relative viability for the following molecule: Cc1csc(=NC2CCCCC2)n1/N=C/c1ccc(O)c(O)c1O [MIM1] + CS(=O)(=O)N1CCN(Cc2cc3nc(-c4cccc5[nH]ncc45)nc(N4CCOCC4)c3s2)CC1 [Pictilisib] (partner 1 µM)
Reply: 0.334

Query: Please report relative viability for the following molecule: CN1CCN(CCOc2cc(OC3CCOCC3)c3c(Nc4c(Cl)ccc5c4OCO5)ncnc3c2)CC1 [Saracatinib] + CC(=O)c1c(C)c2cnc(Nc3ccc(N4CCNCC4)cn3)nc2n(C2CCCC2)c1=O [Palbociclib] (partner 0.5 µM)
Reply: 0.305

* * *

Tested on: SK-LU-1
Assay: relative viability (nuclei count vs DMSO), 5 days (fraction); higher = more cells survive
Conditions: first compound 2 µM
Property Name: relative viability
Please give the numeric answer without any surrounding text.

Query: Give relative viability for Cc1csc(=NC2CCCCC2)n1/N=C/c1ccc(O)c(O)c1O [MIM1] + O=C(c1cc(Cc2n[nH]c(=O)c3ccccc23)ccc1F)N1CCN(C(=O)C2CC2)CC1 [Olaparib] (partner 8 µM) tested on SK-LU-1.
Reply: 0.575

Query: Give relative viability for Cc1csc(=NC2CCCCC2)n1/N=C/c1ccc(O)c(O)c1O [MIM1] + Nc1nc2[nH]cc(CCc3ccc(C(=O)N[C@@H](CCC(=O)O)C(=O)O)cc3)c2c(=O)[nH]1 [Pemetrexed] (partner 0.2 µM) tested on SK-LU-1.
Reply: 0.972

Query: Give relative viability for Cc1csc(=NC2CCCCC2)n1/N=C/c1ccc(O)c(O)c1O [MIM1] + Cc1cc(Nc2cc(N3CCN(C)CC3)nc(Sc3ccc(NC(=O)C4CC4)cc3)n2)n[nH]1 [Tozasertib] (partner 0.1 µM) tested on SK-LU-1.
Reply: 0.393

Query: Give relative viability for Cc1csc(=NC2CCCCC2)n1/N=C/c1ccc(O)c(O)c1O [MIM1] + CS(=O)(=O)CCNCc1ccc(-c2ccc3ncnc(Nc4ccc(OCc5cccc(F)c5)c(Cl)c4)c3c2)o1 [Lapatinib] (partner 2 µM) tested on SK-LU-1.
Reply: 0.791

Query: Give relative viability for CN1CCN(CCOc2cc(OC3CCOCC3)c3c(Nc4c(Cl)ccc5c4OCO5)ncnc3c2)CC1 [Saracatinib] + CC1(C)CCC(c2ccc(Cl)cc2)=C(CN2CCN(c3ccc(C(=O)NS(=O)(=O)c4ccc(N[C@H](CCN5CCOCC5)CSc5ccccc5)c(S(=O)(=O)C(F)(F)F)c4)cc3)CC2)C1 [Navitoclax] (partner 0.5 µM) tested on SK-LU-1.
Reply: 0.412

* * *

System: ChaGo-K-1
Test: relative viability (nuclei count vs DMSO), 5 days (fraction); higher = more cells survive
Settings: first compound 0.1 µM
Property Name: relative viability
Please give the numeric answer without any surrounding text.

Query: Give relative viability for Cc1cn(-c2cc(NC(=O)c3ccc(C)c(Nc4nccc(-c5cccnc5)n4)c3)cc(C(F)(F)F)c2)cn1 [Nilotinib] + N=C(N)NC(=N)NCCc1ccccc1 [Phenformin] (partner 250 µM) tested on ChaGo-K-1.
Reply: 0.315

Query: Give relative viability for Cc1cn(-c2cc(NC(=O)c3ccc(C)c(Nc4nccc(-c5cccnc5)n4)c3)cc(C(F)(F)F)c2)cn1 [Nilotinib] + COc1cc2c(Oc3ccc(NC(=O)C4(C(=O)Nc5ccc(F)cc5)CC4)cc3F)ccnc2cc1OCCCN1CCOCC1 [Foretinib] (partner 0.25 µM) tested on ChaGo-K-1.
Reply: 0.756

* * *

System: NCI-H2347
Test: relative viability (nuclei count vs DMSO), 5 days (fraction); higher = more cells survive
Conditions: first compound 0.6325 µM
Property Name: relative viability
Please give the numeric answer without any surrounding text.

Query: Please report relative viability for the following molecule: Cc1csc(=NC2CCCCC2)n1/N=C/c1ccc(O)c(O)c1O [MIM1] + NC(=O)Nc1cc(-c2cccc(F)c2)sc1C(=O)N[C@H]1CCCNC1 [AZD7762] (partner 0.2 µM)
Reply: 0.779

Query: Please report relative viability for the following molecule: CN1CCN(CCOc2cc(OC3CCOCC3)c3c(Nc4c(Cl)ccc5c4OCO5)ncnc3c2)CC1 [Saracatinib] + CC1(C)CCC(c2ccc(Cl)cc2)=C(CN2CCN(c3ccc(C(=O)NS(=O)(=O)c4ccc(N[C@H](CCN5CCOCC5)CSc5ccccc5)c(S(=O)(=O)C(F)(F)F)c4)cc3)CC2)C1 [Navitoclax] (partner 0.5 µM)
Reply: 0.862

Query: Please report relative viability for the following molecule: Cc1csc(=NC2CCCCC2)n1/N=C/c1ccc(O)c(O)c1O [MIM1] + CC(C)C[C@H](NC(=O)[C@H](Cc1ccccc1)NC(=O)c1cnccn1)B(O)O [Bortezomib] (partner 0.002 µM)
Reply: 1.03

Query: Please report relative viability for the following molecule: Cc1csc(=NC2CCCCC2)n1/N=C/c1ccc(O)c(O)c1O [MIM1] + Nc1ncn([C@H]2C[C@H](O)[C@@H](CO)O2)c(=O)n1 [Decitabine] (partner 2 µM)
Reply: 0.592

Query: Please report relative viability for the following molecule: Cc1csc(=NC2CCCCC2)n1/N=C/c1ccc(O)c(O)c1O [MIM1] + CC(=O)Nc1cccc(-n2c(=O)n(C3CC3)c(=O)c3c(Nc4ccc(I)cc4F)n(C)c(=O)c(C)c32)c1 [Trametinib] (partner 0.02 µM)
Reply: 0.358

* * *

Tested on: SK-MES-1
Test: relative viability (nuclei count vs DMSO), 5 days (fraction); higher = more cells survive
Conditions: first compound 0.6325 µM
Hi there, I'd appreciate the recorded relative viability for every entry that follows.
Please give the numeric answer without any surrounding text.

Query: Give relative viability for CN1CCN(CCOc2cc(OC3CCOCC3)c3c(Nc4c(Cl)ccc5c4OCO5)ncnc3c2)CC1 [Saracatinib] + O=C(CCCCCCC(=O)Nc1ccccc1)NO [Vorinostat] (partner 1 µM) tested on SK-MES-1.
Reply: 1.17

Query: Give relative viability for CN1CCN(CCOc2cc(OC3CCOCC3)c3c(Nc4c(Cl)ccc5c4OCO5)ncnc3c2)CC1 [Saracatinib] + Cc1nc(Nc2ncc(C(=O)Nc3c(C)cccc3Cl)s2)cc(N2CCN(CCO)CC2)n1 [Dasatinib] (partner 0.075 µM) tested on SK-MES-1.
Reply: 0.233

Query: Give relative viability for CN1CCN(CCOc2cc(OC3CCOCC3)c3c(Nc4c(Cl)ccc5c4OCO5)ncnc3c2)CC1 [Saracatinib] + CC(=O)c1c(C)c2cnc(Nc3ccc(N4CCNCC4)cn3)nc2n(C2CCCC2)c1=O [Palbociclib] (partner 0.5 µM) tested on SK-MES-1.
Reply: 0.309

Query: Give relative viability for CN1CCN(CCOc2cc(OC3CCOCC3)c3c(Nc4c(Cl)ccc5c4OCO5)ncnc3c2)CC1 [Saracatinib] + Nc1ncn([C@H]2C[C@H](O)[C@@H](CO)O2)c(=O)n1 [Decitabine] (partner 2 µM) tested on SK-MES-1.
Reply: 0.36

Query: Give relative viability for Cc1csc(=NC2CCCCC2)n1/N=C/c1ccc(O)c(O)c1O [MIM1] + Cc1nc(NC(=O)N2CCC[C@H]2C(N)=O)sc1-c1ccnc(C(C)(C)C(F)(F)F)c1 [Alpelisib] (partner 2 µM) tested on SK-MES-1.
Reply: 0.774

Query: Give relative viability for Cc1csc(=NC2CCCCC2)n1/N=C/c1ccc(O)c(O)c1O [MIM1] + Nc1ncn([C@H]2C[C@H](O)[C@@H](CO)O2)c(=O)n1 [Decitabine] (partner 2 µM) tested on SK-MES-1.
Reply: 0.424

Query: Give relative viability for Cc1csc(=NC2CCCCC2)n1/N=C/c1ccc(O)c(O)c1O [MIM1] + Cc1cc(Nc2cc(N3CCN(C)CC3)nc(Sc3ccc(NC(=O)C4CC4)cc3)n2)n[nH]1 [Tozasertib] (partner 0.1 µM) tested on SK-MES-1.
Reply: 0.848

Query: Give relative viability for CN1CCN(CCOc2cc(OC3CCOCC3)c3c(Nc4c(Cl)ccc5c4OCO5)ncnc3c2)CC1 [Saracatinib] + Nc1nc2[nH]cc(CCc3ccc(C(=O)N[C@@H](CCC(=O)O)C(=O)O)cc3)c2c(=O)[nH]1 [Pemetrexed] (partner 0.2 µM) tested on SK-MES-1.
Reply: 0.886

Query: Give relative viability for CN1CCN(CCOc2cc(OC3CCOCC3)c3c(Nc4c(Cl)ccc5c4OCO5)ncnc3c2)CC1 [Saracatinib] + CC(=O)Nc1cccc(-n2c(=O)n(C3CC3)c(=O)c3c(Nc4ccc(I)cc4F)n(C)c(=O)c(C)c32)c1 [Trametinib] (partner 0.02 µM) tested on SK-MES-1.
Reply: 0.347

Query: Give relative viability for CN1CCN(CCOc2cc(OC3CCOCC3)c3c(Nc4c(Cl)ccc5c4OCO5)ncnc3c2)CC1 [Saracatinib] + Cc1nc(NC(=O)N2CCC[C@H]2C(N)=O)sc1-c1ccnc(C(C)(C)C(F)(F)F)c1 [Alpelisib] (partner 2 µM) tested on SK-MES-1.
Reply: 0.76

Query: Give relative viability for Cc1csc(=NC2CCCCC2)n1/N=C/c1ccc(O)c(O)c1O [MIM1] + COc1cccc2cc(-c3nc([C@H]4CC[C@H](C(=O)O)CC4)n4ncnc(N)c34)[nH]c12 [OSI-027] (partner 0.5 µM) tested on SK-MES-1.
Reply: 0.643

Query: Give relative viability for Cc1csc(=NC2CCCCC2)n1/N=C/c1ccc(O)c(O)c1O [MIM1] + N=C(N)NC(=N)NCCc1ccccc1 [Phenformin] (partner 250 µM) tested on SK-MES-1.
Reply: 0.665
